target.of.assay: human DPP-IV (Homo sapiens, UniProt P27487)
Sequence (P27487 39-766): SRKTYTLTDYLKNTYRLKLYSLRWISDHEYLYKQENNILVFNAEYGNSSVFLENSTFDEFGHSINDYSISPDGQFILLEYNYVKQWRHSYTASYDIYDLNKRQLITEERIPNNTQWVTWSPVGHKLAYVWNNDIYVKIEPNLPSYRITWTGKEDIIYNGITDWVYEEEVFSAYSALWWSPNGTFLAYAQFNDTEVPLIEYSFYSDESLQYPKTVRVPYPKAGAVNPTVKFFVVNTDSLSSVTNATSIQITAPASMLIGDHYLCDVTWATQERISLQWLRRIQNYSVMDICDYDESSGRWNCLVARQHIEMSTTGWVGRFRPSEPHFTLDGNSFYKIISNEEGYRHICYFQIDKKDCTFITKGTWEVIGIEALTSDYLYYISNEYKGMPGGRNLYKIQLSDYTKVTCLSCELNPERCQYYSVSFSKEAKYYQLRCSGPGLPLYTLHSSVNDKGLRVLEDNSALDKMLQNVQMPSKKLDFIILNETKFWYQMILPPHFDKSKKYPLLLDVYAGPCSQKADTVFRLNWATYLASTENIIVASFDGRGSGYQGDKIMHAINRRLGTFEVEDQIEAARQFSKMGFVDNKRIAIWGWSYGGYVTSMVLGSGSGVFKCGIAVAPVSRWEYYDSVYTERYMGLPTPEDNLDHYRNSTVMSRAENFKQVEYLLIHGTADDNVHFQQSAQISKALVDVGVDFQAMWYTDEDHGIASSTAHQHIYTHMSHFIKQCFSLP
Reported pIC50 is given for each of the following compounds.
To interpret pIC50, take it as minus log10 of a concentration measured in moles per litre.

compound=N[C@H](Cc1cc(F)c(F)cc1F)[C@@H]1C[C@H]2CC[C@@H](C1)N2C(=O)CS(=O)(=O)N1Cc2ccccc2C1 experimental_endpoint=pIC50 observed_measurement=8.15
compound=N[C@H](Cc1cc(F)c(F)cc1F)[C@@H]1C[C@H]2CC[C@@H](C1)N2C(=O)CNC(=O)C1(O)CC1 experimental_endpoint=pIC50 observed_measurement=9.22

Form field: reported pIC50 of Cc1cnc(C(=O)NCCS(=O)(=O)N2[C@@H]3CC[C@H]2C[C@H]([C@H](N)Cc2cc(F)c(F)cc2F)C3)cn1 [Example D1]
8.11

Form field: reported pIC50 of C[C@](O)(C(=O)N1[C@@H]2CC[C@H]1C[C@H]([C@H](N)Cc1cc(F)c(F)cc1F)C2)c1ccccc1
8.00

The reported measurements were obtained from patent US7888351B2.
